- Tested on: Trypanosoma cruzi
- test_description: Trypanosoma cruzi phosphomannomutase and mannose-1-phosphate guanylyltransferase assay
- Type: functional
- Set-up: scale not given: direction of the effect not stated beside the values
- assay_setup: 10 µM
measure_name: Percent Effect
I'd appreciate it if you included the unit after the number.

Worked examples follow.
[[record]]
compound = "CC(=O)N1CCCN(C(=O)NCc2cc[nH]n2)CC1"
value_measured = "11.1%"

[[record]]
compound = "CC1CCc2nc(O)c(C(=O)NCc3cccc(F)c3)cc2C1 (configuration not stated)"
value_measured = "-3.54%"

[[record]]
compound = "CC(C)(C)c1cnc(CN2CCC[C@H]2CO)o1"
value_measured = "5.62%"


Return reported Percent Effect values for all items listed beneath this line.
1. O=C(NCCOc1ccc(F)c(F)c1)NCc1ccncc1
2. Cc1cccc(NC(=O)c2sccc2C)n1
3. Cc1ccc(S(=O)(=O)NC(=O)c2c(C)noc2C(C)C)cc1C
4. Cc1cnn(CCNCc2nc(-c3ccccc3Cl)no2)c1

Completion:
-2.32%
3.99%
1.07%
9.77%

----------
- system_under_test: Arginase-2, mitochondrial (Homo sapiens) (UniProt P78540)
- Sequence (whole entry): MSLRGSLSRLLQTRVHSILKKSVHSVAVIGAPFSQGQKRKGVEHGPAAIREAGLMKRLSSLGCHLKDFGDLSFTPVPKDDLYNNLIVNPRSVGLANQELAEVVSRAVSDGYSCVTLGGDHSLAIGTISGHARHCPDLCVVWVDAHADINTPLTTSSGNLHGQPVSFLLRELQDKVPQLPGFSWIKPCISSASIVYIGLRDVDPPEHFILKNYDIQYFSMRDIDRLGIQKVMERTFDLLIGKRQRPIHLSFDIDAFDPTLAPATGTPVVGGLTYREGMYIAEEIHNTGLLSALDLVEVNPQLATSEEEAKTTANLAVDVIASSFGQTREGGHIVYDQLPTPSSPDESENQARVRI
- test_description: in vitro enzyme assay to detect the production of urea directly proportional to the activity of Arginase II; further: in the data most compounds retested in dose-response had high values
- Assay type: functional
- Design: scale not given: direction of the effect not stated beside the values
- assay_setup: 33.3 µM
What Percent Effect was measured for each of the following?

Return reported Percent Effect values for all items listed beneath this line.
1. c1ncn(CC2CCCCN2Cc2csc(C3CCCC3)n2)n1 (stereo unspecified)
2. O=C1CCC2(CCN(c3ncc(F)cn3)CC2)N1CCN1CCCC1

Completion:
1. -1.42%
2. 1.94%

Return reported Percent Effect values for all items listed beneath this line.
1. COCCCC(=O)NS(=O)(=O)c1ccc2c(c1)OCCCO2
2. Cc1cnc2n(c1=O)CC(C(=O)Nc1cccc3cccnc13)CS2 (stereo unspecified)
3. Cc1nnc2n1CCN(CCS(=O)(=O)c1ccccc1)C2
4. COc1ccc(CN(C)C(=O)CCc2c(C)nc(C)[nH]c2=O)cc1OC
5. CC(O)CN1CCN(C(=O)c2cnn(-c3ccc(Cl)cc3)c2)CC1 (stereo unspecified)
6. Cc1nnc2n1CCN(C(=O)c1cc(Cl)c(Cl)n1C)C2
7. CN(C)C(=O)COC1COC2(CCN(S(C)(=O)=O)CC2)C1 (stereo unspecified)

Completion:
5.75%
0.455%
-3.2%
0%
5.21%
-1.53%
9.87%

Return reported Percent Effect values for all items listed beneath this line.
1. Cc1nc(C2CCCN2CC(=O)N(Cc2ccsc2)C2CC2)no1 (stereo unspecified)
2. O=c1ccc(-c2ccccc2F)nn1CCN1CCCS1(=O)=O

Completion:
1. -4.99%
2. 3.72%
